biological target: T1, human SIRP-α v1 D1 domain (human, UniProt P78324 31-149); assay: SPR, Langmuir fit
T1 construct: also called human v1
T1 sequence (P78324 31-149 limits assumed): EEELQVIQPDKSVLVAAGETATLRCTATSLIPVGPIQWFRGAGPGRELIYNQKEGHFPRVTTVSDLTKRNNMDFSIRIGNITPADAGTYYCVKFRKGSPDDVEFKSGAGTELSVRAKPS
koff values, listed per item

binder	readoutUnit	koff
S173 (scFv, V domains shown) VH: DVQLVESGGGVVRPGESLRLSCAASGFAFSDHDMSWVRQGPGEGLEWVAGISLRGGVTWYADSVKGRFTISRDNSKNTLYLRLFSLRTEDTAIYYCARESWNTFFDYWGLGTLVTVSS VL: EIVLTQSPGTLSLSPGETATLSCRASQNVRSNLAWYQQKPGQAPRLLIYDASSRATGIPDRFSGSGSGTDFTLTISSLQSEDFAVYYCQQYGNGPPLTFGGGTKVEIK	s⁻¹	0.00112
S29 (scFv, V domains shown, also called clone 29) VH: DVQLVESGGGVVRPGESLRLSCAVSGFRFSSYAMSWVRQAPGKGLEWVSGISSDSDAYYVDSVKGRFTISRDNSKNTLYLQVNSLTAEDTAVYYCARETWNHLFDYWGLGTMVTVSS VL: ALTQPASVSANLGETVKITCSGGDSSSHYYGWFQQKSPGSAPVTLIYSDDERPSDIPSRFSGSASGSTATLTITGVRVEDEAIYFCGAYDGSTYTNTFGAGTTLTVL	s⁻¹	9.61e-05
